# Tested target: MCL-1ΔNΔC (Homo sapiens, UniProt Q07820)
# Sequence (Q07820 172-320 limits assumed, stated change not applied): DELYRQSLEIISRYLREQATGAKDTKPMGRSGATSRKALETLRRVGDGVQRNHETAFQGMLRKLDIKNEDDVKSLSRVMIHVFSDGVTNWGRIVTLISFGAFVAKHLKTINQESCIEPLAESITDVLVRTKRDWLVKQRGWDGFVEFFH
# Protocol: High-throughput competitive FP binding screen, FITC-MCL-1 SAHB/MCL-1ΔNΔC interaction
# Parameters: the C-terminal alpha-helix was deleted from each of these constructs; GST (N, cleaved yes); made in house
# Details: FITC-MCL-1 SAHB/MCL-1ΔNΔC interaction pair, competitive FP screen
For each entry below, report its MCL-1% Bound value.
One number for each entry, in %.

Cc1ccc(C2=NC(=O)C(Cc3cc(O)c(O)c(Br)c3)S2)cc1 (stereo not shown)
2.607
CC(C)CN1C(=O)/C(=C\c2ccc(-c3ccc(S(N)(=O)=O)cc3)o2)SC1=S
58.51
Cc1ccc2c(c1)CC[C@H]1C3CC[C@H](NCCCCCCN4C(=O)C=CC4=O)[C@@]3(C)CC[C@H]21 (stereo partly shown) [U73122, reference compound]
56.6
c1ccc2c(c1)nc(Nc1ccc(N3CCCCC3)cc1)c1nncn12
35.03
O=C(NCc1ccco1)c1ccc(-c2cc3ccccc3oc2=O)cc1
67.95
N#C/C(=C/C=C/c1ccc(-c2cc(Cl)ccc2Cl)o1)C(N)=S
18.44

Batch of 4 molecules: report MCL-1% Bound for each.
1. Cc1ccccc1OCC1=NN2C(=N)/C(=C\c3cccn3-c3cccc(Cl)c3)C(=O)N=C2S1
2. O=C1C=CC(=O)C(CCC2=CC(=O)C=CC2=O)=C1
3. NC1=C(c2nc3ccccc3s2)CC(=O)N1CCc1ccccc1
4. CCN1C(=O)C2Cc3cc(OC)c(OC)cc3CN2C1=S (stereo not shown)

25.28
31.21
55.57
39.84
